Target: wildtype Kras / hSOS1 (Homo sapiens, UniProt P01116)
Construct: made in house; host or cells: E. coli BL21 (DE3)
Sequence (P01116 1-188 isoform P01116-2): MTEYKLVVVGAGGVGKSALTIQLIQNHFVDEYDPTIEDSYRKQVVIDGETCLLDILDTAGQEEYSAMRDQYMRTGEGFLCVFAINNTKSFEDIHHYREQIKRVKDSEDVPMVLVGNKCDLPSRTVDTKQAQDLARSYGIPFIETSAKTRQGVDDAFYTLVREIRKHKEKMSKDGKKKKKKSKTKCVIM
Assay: HTRF assay, wildtype Kras / SOS1 interaction
Assay type: binding
Details: compound nos. 102-196, general methodology of example 5; read-out: IC50 against wildtype Kras
IC50 values for the compounds below.

>  <compound>
CN1CCC[C@H]1COc1nc(N2CCNC(=O)C(F)(F)C2)c2cc(Cl)c(-c3ccc(F)c4sc(N)nc34)c(F)c2n1 [Compound 112]

>  <test target>
wildtype Kras / hSOS1 (Homo sapiens, UniProt P01116)

>  <reported>
< 0.5 µM

$$$$

Problem: Suppose we examine the compound CN1CCC[C@@H]1COc1nc(N2CCNCC(F)(F)C2)c2cc(Cl)c(-c3cccc4sc(N)nc34)c(F)c2n1 [Compound 113] ; what IC50 value has been reported?
Solution: < 0.5 µM

Problem: Suppose we examine the compound CN1CCC[C@H]1COc1nc(N2CCNCC(F)(F)C2)c2cc(Cl)c(-c3cccc4[nH]c(N)nc34)c(F)c2n1 [Compound 178] ; what IC50 value has been reported?
Solution: > 0.5 µM

Problem: Suppose we examine the compound CO[C@@H]1C[C@@H](COc2nc(N3CCNCC(F)(F)C3)c3cc(Cl)c(-c4cccc5sc(N)nc45)c(F)c3n2)N(C)C1 [Compound 121] ; what IC50 value has been reported?
Solution: < 0.5 µM

* * *

pIC50 values for the compounds below.
Biological target: GST-tagged K-Ras mutant / His-tagged hSOS1 (Homo sapiens, UniProt P01116)
Sequence (P01116 whole entry G12D, form open): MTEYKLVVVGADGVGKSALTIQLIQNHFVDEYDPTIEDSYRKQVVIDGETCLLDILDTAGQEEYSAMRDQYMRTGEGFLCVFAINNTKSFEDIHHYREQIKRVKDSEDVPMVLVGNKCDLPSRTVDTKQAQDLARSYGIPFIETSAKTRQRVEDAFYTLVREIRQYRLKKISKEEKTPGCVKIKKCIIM
Assay: HTRF assay, K-Ras mutant / SOS1 interaction
Type: binding
Conditions: compound nos. 401-703; read-out: IC50 against mutant Kras
pIC50: −log10 of the molar value.

The cases that follow already have their pIC50 on record.
>  <compound>
Nc1cc(-c2c(Cl)cc3c(N4CC5CCC(C4)N5)nc(OCC45CCCN4CCC5)nc3c2F)c2ccccc2c1 [Compound 564]

>  <reported>
< 6.30

$$$$
>  <compound>
Nc1nc2c(-c3c(Cl)cc4c(N5CCCCCCC5)nc(OC[C@@]56CCCN5C[C@H](F)C6)nc4c3F)ccc(F)c2s1 [Compound 667]

>  <reported>
> 6.30

$$$$

Problem: Suppose we examine the compound N#Cc1c(N)sc2c(F)ccc(-c3c(Cl)cc4c(N5CC6CCC(C5)O6)nc(OC[C@@]56CCCN5C[C@H](F)C6)nc4c3F)c12 [Compound 473] ; what pIC50 value has been reported?
Solution: > 6.30

* * *

Target: wildtype Kras / hSOS1 (Homo sapiens)
Construct: made in house; host or cells: E. coli BL21 (DE3)
Test: HTRF assay, wildtype Kras / SOS1 interaction
Type: binding
Conditions: compound nos. 102-196, general methodology of example 5; read-out: IC50 against wildtype Kras
pIC50: −log10 of the molar value.
pIC50 values for the compounds below.

The cases that follow already have their pIC50 on record.
>  <compound>
Nc1nc2c(-c3c(Cl)cc4c(N5CCOCC(O)C5)nc(OCC56CCCN5CCC6)nc4c3F)cccc2s1 (stereo not shown) [Compound 156]

>  <reported>
> 6.30

$$$$
>  <compound>
Nc1nc2c(-c3c(Cl)cc4c(N5CCNCC(O)C5)nc(OCC56CCCN5CCC6)nc4c3F)ccc(F)c2s1 (stereo not shown) [Compound 161]

>  <reported>
> 6.30

$$$$
>  <compound>
CN1CCC[C@H]1COc1nc(N2CCNCC(F)(F)C2)c2cc(Cl)c(-c3cccc4oc(O)nc34)c(F)c2n1 [Compound 176]

>  <reported>
< 6.30

$$$$

Moving on to the next compound.
Problem: Suppose we examine the compound CN1CCC[C@H]1COc1nc(N2CCNCC(F)(F)C2)c2cc(Cl)c(-c3cccc4scnc34)c(F)c2n1 [Compound 122] ; what pIC50 value has been reported?
Solution: < 6.30
